Assay: BSK_3C_Proliferation: Cell Proliferation Assessment in the BioMAP Diversity Plus: 3C Assay (AID 2283006);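 as to AC50: potency may reflect either rise or fall in cell number versus DMSO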
Details: primary human endothelial cells (HUVEC)
Active and inactive are the calls of the source. The calls were made as follows: active = hit-call score of the fitted dose curve at least 0.9, where 1 is the maximum; inactive = score below 0.9.
Attribute measured: AC50

# count of solved cases: 5
>  <Molecule>
COc1ccc([N+](=O)[O-])cc1N

>  <Value observed>
inactive

$$$$
>  <Molecule>
CCCCCCCCCCCCCCCS(=O)(=O)Oc1ccccc1

>  <Value observed>
inactive

$$$$
>  <Molecule>
CCC(=C(c1ccc(O)cc1)c1ccc(OCCN(C)C)cc1)c1ccccc1

>  <Value observed>
5.85 µM (active)

$$$$
>  <Molecule>
O=C(O)c1ccccc1C(c1ccc(O)cc1)c1ccc(O)cc1

>  <Value observed>
inactive

$$$$
>  <Molecule>
CC(=O)NC1(c2cccc(F)c2)CCN(CC[C@@]2(c3ccc(Cl)c(Cl)c3)CN(c3ccccc3)C(=O)CO2)CC1

>  <Value observed>
20.8 µM (active)

$$$$

Param item = `Cc1cc(C)c(O)c(C)c1` ; retrieve measured AC50.
inactive

Similarly, `CCCCCCCCOC(=O)CCCCCCCCC(=O)OCCCCCCCC` ?
inactive

Same question, `C[C@@H]1C[C@H]2[C@@H]3CCC4=CC(=O)C=C[C@]4(C)[C@@]3(F)[C@@H](O)C[C@]2(C)[C@@]1(O)C(=O)COP(=O)(O)O` this time
inactive

Subsequent entry: `CC(C)(C)c1cc(C(C)(C)C)c(O)c(C(C)(C)C)c1`
inactive

Could you do the same for `Cc1oc(-c2ccccc2)nc1CCOc1ccc(C[C@H](Nc2ccccc2C(=O)c2ccccc2)C(=O)O)cc1` , please?
17.3 µM (active)

Field entry: `O=[N+]([O-])c1ccc(O)cc1`
inactive

Field entry: `CC(=O)CC(C)(C)O`
inactive

Queued: CCc1nn(C2CCCCC2)c2cc(C3(C#N)CCC(C(=O)O)CC3)ccc12 (stereo not given)
6.36 µM (active)

Okay, and NC(=O)N1C(=O)C(C(=O)c2cc(Cl)cs2)c2cc(F)c(Cl)cc21 (stereo not given) ?
11 µM (active)

Same thing, different molecule: N#C[C@@H]1CC(F)(F)CN1C(=O)CNC1CC2CCC(C1)N2c1ncccn1 (stereo not given in full)
inactive

Now this one: OC1CCC(C2CCCCC2)CC1 (stereo not given)
inactive

Would you mind doing `CC(C)(C)CC(C)(C)c1ccc(O)c(-n2nc3ccccc3n2)c1` as well?
inactive

Item: `NC(=O)N(O)[C@@H]1C=C[C@H](Oc2cccc(Oc3ccc(F)cc3)c2)C1`
9.97 µM (active)

Now this one: `CCCCOCCO`
inactive

Subsequent entry: `ClC1=C(Cl)C(Cl)(Cl)C(Cl)=C1Cl`
3.29 µM (active)

Now the same for CC(O)CO (stereo not given)
inactive

Param item: `OC1CCCCC1`
inactive

* * *

Assay: ACEA_AR_antagonist_AUC_viability: ACEA Biosciences xCELLigence Real-Time Cell Analysis on Androgen Receptor Antagonism for Viability (AID 2283776);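 also: 22Rv1 human prostate cancer cells growing on impedance electrode plates; area under impedance growth curve at 80 h after dosing as viability; hits lower the growth signal relative to DMSO meaning cytotoxicity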
Records with an inconclusive call do not appear. The source made the active and inactive calls. Rule for the calls: active = hit-call score of the fitted dose curve at least 0.9, where 1 is the maximum; inconclusive = response in the unintended direction; inactive = score below 0.9.
Attribute measured: AC50

Here are 6 compounds together with their reported answers.
>  <Compound>
Cc1cc(C)c(O)c(C)c1

>  <Value observed>
inactive

$$$$
>  <Compound>
CCCCCCCCCCCCCC[N+](C)(C)C

>  <Value observed>
6.52 µM (active)

$$$$
>  <Compound>
CCCCCCC(=O)O

>  <Value observed>
inactive

$$$$
>  <Compound>
CCCCCCCC(=O)O

>  <Value observed>
inactive

$$$$
>  <Compound>
CCOC(=O)CC(O)(CC(=O)OCC)C(=O)OCC

>  <Value observed>
inactive

$$$$
>  <Compound>
CC(C)(C)CC(C)(C)c1ccc(O)c(-n2nc3ccccc3n2)c1

>  <Value observed>
82.8 µM (active)

$$$$

Consider the compound shown here: `Oc1cccc(O)c1` What is its recorded AC50?
inactive

Would you kindly repeat that for `CCCCOCCO` ?
inactive

Note, next up: `CCCCCCCCCCCCc1ccccc1S(=O)(=O)O`
inactive

// next record `Oc1cc2ccccc2c2ccccc12`
10.7 µM (active)

Can you handle `COc1ccc([N+](=O)[O-])cc1N` next?
27.3 µM (active)
